reported_property: pIC50
# log scale: pIC50 equals minus log10 of the concentration in mol/L

Value wanted: pIC50 (JAK2(h) (Homo sapiens (Human), UniProt O60674)) of entry Cn1ccc(-c2cn3nccc3c(-c3cnn(C(CC#N)C45CC(C#N)(C4)C5)c3)n2)n1 (stereo not drawn)
6.41

Enter reported pIC50 observed with JAK2(h) (Homo sapiens (Human), UniProt O60674) for Cn1ccc(-c2cn3nccc3c(-c3cnn([C@]4(CC#N)CC5(C[C@@H](C#N)C5)C4)c3)n2)n1 (stereo partly drawn)
Sequence (O60674 whole entry): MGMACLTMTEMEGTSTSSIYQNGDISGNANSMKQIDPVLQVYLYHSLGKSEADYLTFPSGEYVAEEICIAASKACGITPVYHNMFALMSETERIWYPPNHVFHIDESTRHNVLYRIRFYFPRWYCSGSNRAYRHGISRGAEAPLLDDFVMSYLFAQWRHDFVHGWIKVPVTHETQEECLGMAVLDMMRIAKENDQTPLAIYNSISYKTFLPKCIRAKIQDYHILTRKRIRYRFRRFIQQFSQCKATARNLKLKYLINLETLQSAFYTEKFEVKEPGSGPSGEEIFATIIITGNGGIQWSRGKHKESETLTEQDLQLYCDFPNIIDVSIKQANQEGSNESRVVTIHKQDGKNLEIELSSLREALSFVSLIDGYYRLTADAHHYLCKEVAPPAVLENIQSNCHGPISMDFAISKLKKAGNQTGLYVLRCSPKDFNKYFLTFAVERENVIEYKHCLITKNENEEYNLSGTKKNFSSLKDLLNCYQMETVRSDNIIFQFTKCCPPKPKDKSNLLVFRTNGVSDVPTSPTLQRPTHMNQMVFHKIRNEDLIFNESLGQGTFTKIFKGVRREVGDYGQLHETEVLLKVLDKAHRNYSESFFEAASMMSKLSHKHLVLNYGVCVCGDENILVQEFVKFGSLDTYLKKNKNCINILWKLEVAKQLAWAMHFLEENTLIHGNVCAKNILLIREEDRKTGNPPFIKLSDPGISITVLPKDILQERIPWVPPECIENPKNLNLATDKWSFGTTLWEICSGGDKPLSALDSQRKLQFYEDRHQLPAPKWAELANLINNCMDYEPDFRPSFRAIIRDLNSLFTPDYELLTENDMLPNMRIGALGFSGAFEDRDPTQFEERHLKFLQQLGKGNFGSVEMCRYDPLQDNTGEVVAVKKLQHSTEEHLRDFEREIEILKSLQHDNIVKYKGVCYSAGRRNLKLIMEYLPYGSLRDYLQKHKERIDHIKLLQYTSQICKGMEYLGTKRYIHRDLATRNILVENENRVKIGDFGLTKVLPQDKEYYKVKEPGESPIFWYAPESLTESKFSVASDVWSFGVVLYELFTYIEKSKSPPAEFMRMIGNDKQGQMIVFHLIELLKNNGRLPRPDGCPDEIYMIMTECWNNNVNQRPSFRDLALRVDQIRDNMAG
7.40

Give pIC50 (JAK2(h) (Homo sapiens (Human), UniProt O60674)) of the following molecule: Cn1cc(-c2cc(-c3cnn([C@]4(CC#N)CC5(C[C@H](C#N)C5)C4)c3)c3ccnn3c2)cn1 (stereo partly drawn)
8.22
